- experimental-target: MMP-13 (Homo sapiens, UniProt P45452)
- protocol-summary: MMP-13 inhibition (thiopeptide or fluorescent peptide substrate)
- Assay type: biochemical
- assay-context: read-out: MMP-13 IC50
attribute-measured: IC50 (nM)

Field: example entries. Status: answers known.
compound: CC#CCOc1ccc(S(=O)(=O)N(Cc2cccnc2)C(CSCc2ccccc2)C(=O)NO)cc1 (stereo not shown)
readout-unit: nM
IC50: 3.8
//
compound: CC#CCOc1ccc(S(=O)(=O)N(Cc2cccnc2)[C@@H](C(=O)NO)C2CCCCC2)cc1
readout-unit: nM
IC50: 53
//
compound: CC#CCOc1ccc(S(=O)(=O)N2CCN(C(=O)N(C(C)C)C(C)C)CC2C(=O)NO)cc1 (stereo not shown)
readout-unit: nM
IC50: 213
//
compound: CC#CCOc1ccc(S(=O)(=O)N(CCCN2CCOCC2)C(C(=O)NO)C(C)C)cc1 (stereo not shown)
readout-unit: nM
IC50: 46
//
compound: CC#CCOc1ccc(S(=O)(=O)N(C)C(C(=O)NO)c2ccccc2)cc1 (stereo not shown)
readout-unit: nM
IC50: 20

P = CC#CCOc1ccc(S(=O)(=O)N(C)C(C(=O)NO)C(C)(C)SCCCN2CCOCC2)cc1 (stereo not shown)
Q = CC#CCOc1ccc(S(=O)(=O)N[C@@H](C(=O)NO)C(C)(C)SCCCO)cc1
P or Q : whose IC50 is greater? Give the label under which the chosen entry appears.
Q

----------
- experimental-target: MMP-1 (Homo sapiens)
- Sequence (P03956 100-469): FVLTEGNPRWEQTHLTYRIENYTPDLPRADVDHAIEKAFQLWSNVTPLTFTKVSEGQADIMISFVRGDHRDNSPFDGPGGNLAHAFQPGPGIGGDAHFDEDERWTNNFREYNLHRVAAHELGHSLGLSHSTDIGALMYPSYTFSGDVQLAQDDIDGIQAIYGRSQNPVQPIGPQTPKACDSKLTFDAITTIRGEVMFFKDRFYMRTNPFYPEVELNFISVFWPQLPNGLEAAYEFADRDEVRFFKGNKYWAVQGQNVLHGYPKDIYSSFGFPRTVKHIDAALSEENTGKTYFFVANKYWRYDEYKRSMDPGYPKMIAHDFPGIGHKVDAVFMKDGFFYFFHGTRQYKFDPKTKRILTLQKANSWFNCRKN
- protocol-summary: MMP-1 inhibition (thiopeptide or fluorescent peptide substrate)
- Assay type: biochemical
- assay-context: read-out: MMP-1 IC50
attribute-measured: IC50 (nM)

Recorded results for 2 compounds are shown here.
compound: CC#CCOc1ccc(S(=O)(=O)N2CCN(S(C)(=O)=O)CC2C(=O)NO)cc1 (centres unmarked) [Example 227]
experimental-target: MMP-1 (Homo sapiens)
attribute-measured: IC50
quantitative-readout: 96
//
compound: CC#CCOc1ccc(S(=O)(=O)N2CCN(C(=O)OCc3ccccc3)CC2C(=O)NO)cc1 (centres unmarked) [Example 219]
experimental-target: MMP-1 (Homo sapiens)
attribute-measured: IC50
quantitative-readout: 176

A = CC#CCOc1ccc(S(=O)(=O)N(C)C(C(=O)NO)c2ccccc2)cc1 (centres unmarked) [Example 211]
B = CC#CCOc1ccc(S(=O)(=O)N(CCCCN2CCN(C)CC2)C(C(=O)NO)C(C)C)cc1 (centres unmarked) [Example 122]
C = CC#CCOc1ccc(S(=O)(=O)N(C)C(C(=O)NO)c2ccc(Cl)cc2)cc1 (centres unmarked) [Example 212]
Parameters: sort_field (IC50), sort_dir (desc). To answer, arrange all of the labels according to the requested order.
C, A, B

----------
- experimental-target: TNF-α converting enzyme (TACE) (Homo sapiens, UniProt P78536)
- Sequence (P78536 215-824, species assumed): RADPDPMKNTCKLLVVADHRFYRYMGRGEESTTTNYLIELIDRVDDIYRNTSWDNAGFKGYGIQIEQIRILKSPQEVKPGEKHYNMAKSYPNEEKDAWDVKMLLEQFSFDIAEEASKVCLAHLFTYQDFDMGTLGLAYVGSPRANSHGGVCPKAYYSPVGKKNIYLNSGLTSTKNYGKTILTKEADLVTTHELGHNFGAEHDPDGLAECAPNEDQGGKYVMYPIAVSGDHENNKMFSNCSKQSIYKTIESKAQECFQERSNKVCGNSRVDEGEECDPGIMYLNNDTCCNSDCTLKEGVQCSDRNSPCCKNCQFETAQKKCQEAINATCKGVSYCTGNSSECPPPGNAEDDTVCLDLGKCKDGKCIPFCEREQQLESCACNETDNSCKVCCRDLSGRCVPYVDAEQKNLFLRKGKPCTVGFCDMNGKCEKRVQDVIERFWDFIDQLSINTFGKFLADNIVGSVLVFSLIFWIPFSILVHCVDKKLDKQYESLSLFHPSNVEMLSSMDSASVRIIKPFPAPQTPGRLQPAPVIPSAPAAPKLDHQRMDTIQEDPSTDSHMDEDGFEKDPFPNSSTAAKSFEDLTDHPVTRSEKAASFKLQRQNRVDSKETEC
- protocol-summary: TACE inhibition (fluorescent peptidyl substrate)
- Assay type: biochemical
- assay-context: read-out: TACE IC50
pIC50: −log10 of the molar value.
attribute-measured: pIC50

Some solved entries appear below for comparison.
molecule: CC#CCOc1ccc(S(=O)(=O)N[C@H](CSCCCO)C(=O)NO)cc1
pIC50: 7.96
--
molecule: CC#CCOc1ccc(S(=O)(=O)NC2(C(=O)NO)CCN(C(=O)OC(C)(C)C)CC2)cc1
pIC50: 7.43
--
molecule: CC#CCOc1ccc(S(=O)(=O)N(CC#CCN2CCN(C)CC2)C(C)C(=O)NO)cc1 (stereo not shown)
pIC50: 7.68
--
molecule: CC#CCOc1ccc(S(=O)(=O)N(CCCCN(CC)CC)C(C(=O)NO)C(C)C)cc1 (stereo not shown)
pIC50: 6.75
--
molecule: CC#CCOc1ccc(S(=O)(=O)NC(C(=O)NO)c2ccc(OCCN3CCOCC3)cc2)cc1 (stereo not shown)
pIC50: 7.48

A = CC#CCOc1ccc(S(=O)(=O)N(C)C(C(=O)NO)c2ccc(OCCN3CCN(C(=O)OC(C)(C)C)CC3)cc2)cc1 (stereo not shown)
B = CC#CCOc1ccc(S(=O)(=O)N2Cc3ccccc3CC2C(=O)NO)cc1 (stereo not shown)
From the recorded data, which exceeds the other in pIC50: A or B ? Your answer should be the label attached to the chosen record.
B

A = CC#CCOc1ccc(S(=O)(=O)N(C)C(C(=O)NO)c2ccccc2)cc1 (stereo not shown)
B = CC#CCOc1ccc(S(=O)(=O)N(CCCCN2CCN(C)CC2)C(C(=O)NO)C(C)C)cc1 (stereo not shown)
C = CC#CCOc1ccc(S(=O)(=O)N(C)[C@@H](C(=O)NO)c2ccc(O[C@H]3CCN(C(=O)OC(C)(C)C)C3)cc2)cc1
D = CC#CCOc1ccc(S(=O)(=O)N(C)C(C(=O)NO)C(C)(C)SCc2cccnc2)cc1 (stereo not shown)
Place the items in sequence of falling pIC50. // list labels; follow requested order
A, D, B, C
(A: 8.10, D: 7.13, B: 6.89, C: 6.64)

A = CC#CCOc1ccc(S(=O)(=O)N(C)C(C(=O)NO)c2ccc(Cl)cc2)cc1 (stereo not shown)
B = CC#CCOc1ccc(S(=O)(=O)NC(C(=O)NO)c2ccc(O)cc2)cc1 (stereo not shown)
C = CC#CCOc1ccc(S(=O)(=O)N(C)C(C(=O)NO)C(C)(C)SCCC)cc1 (stereo not shown)
Falling order of pIC50, please. Reply: labels, ordered per the request.
B, C, A
